B1: TPR t1 (parent)
chain: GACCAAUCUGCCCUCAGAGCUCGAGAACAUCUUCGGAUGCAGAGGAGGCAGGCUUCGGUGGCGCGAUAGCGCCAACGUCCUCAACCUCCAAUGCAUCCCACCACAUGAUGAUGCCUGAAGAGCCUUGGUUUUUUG

Variants of: B1
Test: polymerase ribozyme fitness, log enrichment relative to wild type (log ratio); higher = more active; in vitro selection for triplet polymerase activity
Reported polymerase ribozyme fitness (log ratio) values are given for each entry in this list.
Reply with the value as a number alone.

Check out these entries, answers already filled in.
VARIANT CODE: C82G G127A
QUANTITY MEASURED: polymerase ribozyme fitness (log ratio)
VAL: -2
--
VARIANT CODE: G10U A46C A74U G127C
QUANTITY MEASURED: polymerase ribozyme fitness (log ratio)
VAL: -2.03

Read the next record carefully.
Input: I am curious: what polymerase ribozyme fitness (log ratio) value has been reported for C15G C73A ?
Output: -2.02
